The reported measurements were obtained from patent US9526680B2.

target_or_test_system: OR2W1 (Homo sapiens)
Construct: expressed in transfected cells; host or cells: HEK293
Sequence (Q9Y3N9 whole entry): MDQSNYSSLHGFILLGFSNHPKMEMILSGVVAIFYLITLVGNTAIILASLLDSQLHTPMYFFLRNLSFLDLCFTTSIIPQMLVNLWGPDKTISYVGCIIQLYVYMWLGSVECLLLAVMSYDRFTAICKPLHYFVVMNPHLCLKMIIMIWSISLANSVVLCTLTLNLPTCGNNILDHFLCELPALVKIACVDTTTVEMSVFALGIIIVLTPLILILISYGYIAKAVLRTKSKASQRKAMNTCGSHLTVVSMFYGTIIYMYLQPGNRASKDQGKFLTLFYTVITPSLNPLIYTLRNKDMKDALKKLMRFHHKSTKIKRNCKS
measurement_protocol: Luciferase reporter gene assay, OR2W1 expressed in HEK293 cells
Assay type: cell-based
measurement_conditions: response to hexanoic acid; test substance added together with hexanoic acid; HEK293
recorded_endpoint: Inhibition ratio of OR2W1 response

Cc1cccc(CC(C)(C)CO)c1 :: 2 (Inhibition ratio: 20% to 50%)
CC(C)c1cccc(C(C)CC=O)c1 (stereo not drawn) [Florhydral, 3-(3-isopropylphenyl)-butyraldehyde] :: 1 (Inhibition ratio: 50% or higher)
COc1ccccc1CCC(C)(C)O :: 1 (Inhibition ratio: 50% or higher)
CC1(C)CCCC2=C1CC(C=O)CC2 (stereo not drawn) :: 1 (Inhibition ratio: 50% or higher)
CC(C=O)Cc1ccc(C(C)(C)C)cc1 (stereo not drawn) [Lilial, p-tert-butyl-α-methylhydrocinnamaldehyde] :: 2 (Inhibition ratio: 20% to 50%)

Note: attention shifts to another entry.
GET /values?item= CC(C)(C)c1ccc(CCC=O)cc1 &system= OR2W1 (Homo sapiens) returns Inhibition ratio of OR2W1 response: 1 (Inhibition ratio: 50% or higher)
